Reference source: ChEMBL document CHEMBL3091428

Entries and their MIC values follow.
- Tested on: Nakaseomyces glabratus
- experimentDescription: Antimicrobial activity against Candida glabrata ATCC 90030 after 24 hrs by broth microdilution method
- Assay type: functional
- testContext: ATCC 90030, 24 h

Here is how some compounds turned out for MIC.
>  <compound>
COc1ccc(Nn2c(SCC(=O)c3ccc(Cl)c(Cl)c3)nc(C)c2C)cc1

>  <systemName>
Nakaseomyces glabratus

>  <MIC>
800 µg/mL

$$$$
>  <compound>
Cc1nc(SCC(=O)c2ccc(F)c(F)c2)n(Nc2ccccc2)c1C

>  <systemName>
Nakaseomyces glabratus

>  <MIC>
400 µg/mL

$$$$
>  <compound>
COc1ccc(C(=O)CSc2nc(C)c(C)n2Nc2ccc(Cl)cc2)cc1OC

>  <systemName>
Nakaseomyces glabratus

>  <MIC>
400 µg/mL

$$$$
>  <compound>
Cc1nc(SCC(=O)c2ccccc2)n(Nc2ccccc2)c1C

>  <systemName>
Nakaseomyces glabratus

>  <MIC>
800 µg/mL

$$$$
>  <compound>
COc1cccc(C(=O)CSc2nc(C)c(C)n2Nc2ccccc2)c1

>  <systemName>
Nakaseomyces glabratus

>  <MIC>
400 µg/mL

$$$$
>  <compound>
Cc1nc(SCC(=O)c2ccc(Cl)cc2)n(Nc2ccccc2)c1C

>  <systemName>
Nakaseomyces glabratus

>  <MIC>
400 µg/mL

$$$$
>  <compound>
Cc1ccc(Nn2c(SCC(=O)c3ccccc3)nc(C)c2C)cc1

>  <systemName>
Nakaseomyces glabratus

>  <MIC>
400 µg/mL

$$$$
>  <compound>
COc1ccc(C(=O)CSc2nc(C)c(C)n2Nc2ccccc2)cc1

>  <systemName>
Nakaseomyces glabratus

>  <MIC>
800 µg/mL

$$$$

Could you now look at the following compound, please?
Data request: State its MIC: `Cc1nc(SCC(=O)c2cccc(F)c2)n(Nc2ccccc2)c1C`
Data returned: 400 µg/mL

* * *

- Tested on: Pichia kudriavzevii
- experimentDescription: Antimicrobial activity against Candida krusei ATCC 6258 after 24 hrs by broth microdilution method
- Type: functional
- testContext: ATCC 6258, 24 h
Readings of MIC for the listed compounds
Number in µg/mL, nothing else.

>  <smilesStr>
COc1ccc(Nn2c(SCC(=O)c3ccccc3)nc(C)c2C)cc1

>  <MIC (µg/mL)>
800

$$$$
>  <smilesStr>
Cc1nc(SCC(=O)c2cccc(F)c2)n(Nc2ccccc2)c1C

>  <MIC (µg/mL)>
200

$$$$
>  <smilesStr>
Cc1ccc(Nn2c(SCC(=O)c3ccc(F)c(F)c3)nc(C)c2C)cc1

>  <MIC (µg/mL)>
100

$$$$
>  <smilesStr>
Cc1ccc(Nn2c(SCC(=O)c3cccc(Cl)c3)nc(C)c2C)cc1

>  <MIC (µg/mL)>
800

$$$$
>  <smilesStr>
COc1ccc(Nn2c(SCC(=O)c3cccc(OC)c3)nc(C)c2C)cc1

>  <MIC (µg/mL)>
800

$$$$

Data request: Determine its reported MIC: `Cc1nc(SCC(=O)c2ccccc2)n(Nc2ccccc2)c1C`
Data returned: 400

Data request: Indicate the recorded MIC value for this compound: `Cc1ccc(Nn2c(SCC(=O)c3ccc(Cl)cc3)nc(C)c2C)cc1`
Data returned: 200

Data request: Please supply the value of reported MIC for the item `COc1ccc(Nn2c(SCC(=O)c3ccc(OC)c(OC)c3)nc(C)c2C)cc1`
Data returned: 200

Data request: Consider the compound `COc1ccc(Nn2c(SCC(=O)c3ccc(Cl)cc3)nc(C)c2C)cc1` . State its measured MIC.
Data returned: 400

Data request: Report MIC, nothing else, for this compound: `COc1ccc(Nn2c(SCC(=O)c3cccc(F)c3)nc(C)c2C)cc1`
Data returned: 400

Data request: Supply recorded MIC for `COc1ccc(Nn2c(SCC(=O)c3cccc(Cl)c3)nc(C)c2C)cc1` here.
Data returned: 400
